Recorded values, source PubChem BioAssay (NCI).

# System: M14 melanoma
# testDescription: NCI-60 one-dose screen, 48 h
# testParameters: 10 µM unless noted
About 83,000 compounds went through this panel and 20% of them were active in at least one assay; those are over-represented in the sample as a whole. Active and inactive are the calls of the source. Rule for the calls: active = growth percent below 10; inactive = the rest.
Bench note: report the call from 1 (active), -1 (inactive)

These recorded examples may help you get a feel for the data.
compound | assignedLabel
C[C@@]12CC=C3c4nc(Nc5cccc(O)c5)sc4CC[C@]3(C)[C@H]1CC[C@]1(C)C(=O)CC[C@@H]21 | -1
CC(=O)O[C@H](C[C@H](C(C)C)N(C)C(=O)[C@@H](NC(=O)[C@H]1CCCCN1C)C(C)C)c1nc(C(=O)N[C@@H](Cc2ccccc2)C[C@H](C)C(=O)O)c(C)s1 | 1

Inquiry: Per the records of this test, what outcome belongs to C/C=C(\C)C(=O)O[C@@H]1C(O)[C@H]2OC(COC(=O)CCC(=O)CCCCCC[C@H](CCCCC)O[C@@H]3OC(C)[C@H](OC(C)=O)C(O)[C@H]3O2)[C@H]1OC(=O)/C=C/c1ccccc1 (some centres not stated) ?
Reply text: 1

Inquiry: Check COC(=O)C1OC(Oc2ccc(N(CCCl)CCCl)cc2)C(OC(C)=O)C(OC(C)=O)C1OC(C)=O (configuration not stated) too.
Reply text: -1

Inquiry: Check "C[C@]12C[C@@H](CO)[C@H](O)C[C@@H]1CC[C@@H]1[C@@H]2CC[C@]2(C)[C@@H](O)CC[C@@H]12" too.
Reply text: -1

Inquiry: Check "C[C@]12CCc3sc(-c4cccc(F)c4)nc3C1=CC[C@@H]1[C@@H]2CC[C@]2(C)C(=O)CC[C@@H]12" too.
Reply text: -1

Inquiry: Check "COc1ccc(/C=C\c2cc(OC)c(OC)c(OC)c2)cc1NC(=O)/C=C/c1cc(OC)c(OC)c(OC)c1" too.
Reply text: -1

Inquiry: Check O=C(CC1(O)C(=O)Nc2ccccc21)c1ccc(C(=O)NCC2CCC3(CC2)OOC2(CCCCC2)OO3)cc1 (configuration not stated) too.
Reply text: -1

Inquiry: Check O=[N+]([O-])c1ccc(OP(=O)(CCl)N(CCCl)CCCl)cc1 (configuration not stated) too.
Reply text: -1

Inquiry: Check "CCn1c2ccccc2c2cc(C(=O)c3ccc(C)c4ccccc34)ccc21" too.
Reply text: 1

Inquiry: Check CN(C)C1C(=O)C(C(N)=O)=C(O)C2(O)C(=O)C3=C(O)c4c(O)cccc4C(C)(O)C3CC12.[Cl][Sb]([Cl])[Cl] (configuration not stated) too.
Reply text: -1

Inquiry: Check COc1cccc(C=NC(Cc2cnc[nH]2)C(=O)O)c1O (configuration not stated) too.
Reply text: -1

Inquiry: Check CCC1(C)CC(CCNCc2ccccc2O)(c2ccc(C)cc2)CCO1 (configuration not stated) too.
Reply text: -1

Inquiry: Check CC(CO)NC1CCCCC1 (configuration not stated) too.
Reply text: -1

Inquiry: Check CC(C)(C)C(=O)OCOP(=O)(OCOC(=O)C(C)(C)C)C1CCCN(O)C1=O (configuration not stated) too.
Reply text: -1

Inquiry: Check "COc1ccc2c(c1)c(-c1nc(-c3c[nH]c4ncccc34)cs1)cn2CCCCN1CCCCC1" too.
Reply text: 1

Inquiry: Check "COc1ccc(O)c(CNC(=O)CN2CCCC2=O)c1" too.
Reply text: -1
